- System: anesthetized rat
- Assay Comment: Blood pressure-lowering effect in anesthetized rat
- Format: in vivo
- Experimental Parameters: duodenal administration; half duration at ED30 (recovery to 50% of the maximum decrease in blood pressure)
Catalogue of Blood pressure-lowering effect Half duration readings, one per entry.
Just the number in min, nothing appended.

# Compound, Output Unit, Quantitative Readout
rows = [
    ("Cc1cccc(C)c1C(=O)SCC(=O)[N-]c1c[n+](N2CCN(C)CC2)no1", "min", 44),
    ("C[C@H](CSC(=O)c1ccccc1)C(=O)[N-]c1c[n+](N2CCN(Cc3ccccc3)CC2)no1", "min", 62),
    ("CC(C)N1CCN([n+]2cc([N-]C(=O)CCSC(=O)c3ccc(F)cc3)on2)CC1", "min", 46),
    ("CC(=O)SCCC(=O)[N-]c1c[n+](N2CCN(Cc3ccccc3)CC2)no1", "min", 49),
    ("CN1CCN([n+]2cc([N-]C(=O)CSc3cc(C(C)(C)C)c(O)c(C(C)(C)C)c3)on2)CC1", "min", 151),
]

Endpoint output: Blood pressure-lowering effect Half duration of C[C@H](CSC(=O)c1ccccc1)C(=O)[N-]c1c[n+](N2CCN(C3CCCC3)CC2)no1 . Value?
47

Now give it for CCN1CCN([n+]2cc([N-]C(=O)CCSC(C)=O)on2)CC1 too.
48

Now give it for CCOC(=O)[N-]c1cn(N2CCOCC2)n[o+]1 [molsidomine, reference compound] too.
39

Now give it for CC(=O)SC[C@@H](C)C(=O)[N-]c1c[n+](N2CCN(C)CC2)no1 too.
40

Now give it for CCNC(=O)SCCC(=O)[N-]c1c[n+](N2CCN(CC)CC2)no1 too.
44

----------
- Tested on: anesthetized rat
- Assay Comment: Blood pressure-lowering effect in anesthetized rat
- Type: in vivo
- Experimental Parameters: duodenal administration; half duration at ED30 (recovery to 50% of the maximum decrease in blood pressure)
Property Measured: Blood pressure-lowering effect Half duration (min)
Just the number in min, nothing appended.

Record excerpt, results attached:
# Compound Structure String, Output Unit, Quantitative Readout
rows = [
    ("CCN1CCN([n+]2cc([N-]C(=O)CCSC(=O)C(C)(C)C)on2)CC1", "min", 46),
    ("CCN1CCN([n+]2cc([N-]C(=O)CSC(C)=O)on2)CC1", "min", 44),
    ("C[C@H](CSC(=O)c1ccccc1)C(=O)[N-]c1c[n+](N2CCN(CC(F)(F)F)CC2)no1", "min", 41),
]

// below: Blood pressure-lowering effect Half duration requested for another compound
Endpoint output: Blood pressure-lowering effect Half duration of CN1CCN([n+]2cc([N-]C(=O)CCSc3cc(C(C)(C)C)c(O)c(C(C)(C)C)c3)on2)CC1 . Value?
43

----------
Catalogue of Blood pressure-lowering effect Half duration readings, one per entry.
- System: anesthetized rat
- Assay Comment: Blood pressure-lowering effect in anesthetized rat
- Format: in vivo
- Experimental Parameters: duodenal administration; half duration at ED30 (recovery to 50% of the maximum decrease in blood pressure)
- Protocol: Male Sprague Dawley rats weighing 280 to 450 g were anesthetized with sodium pentobarbital (50 mg/kg, i.p.) and fixed in the supine position. A canula was inserted into the trachea of each animal. […] After administering the drug, the blood pressure was measured until the average blood pressure returned to the level before the administration. […]
Just the number in min, nothing appended.

# Compound Structure String, Quantitative Readout
records = [
    ("COc1cc(CC(=O)[N-]c2c[n+](N3CCN(C)CC3)no2)cc(OC)c1OC", 60),
]

Tell me reported Blood pressure-lowering effect Half duration for CN1CCN([n+]2cc([N-]C(=O)CCCSC(=O)c3ccccc3)on2)CC1 , tested with anesthetized rat.
43

Now give it for CC(=O)SC[C@@H](C)C(=O)[N-]c1c[n+](N2CCN(C(C)C)CC2)no1 too.
49
